targetUnderTest: Full length human recombinant HDAC8 protein (Homo sapiens, UniProt Q9BY41)
Construct: Full length human recombinant HDAC8 protein was expressed in baculoviral system; made in house
Sequence (Q9BY41 whole entry): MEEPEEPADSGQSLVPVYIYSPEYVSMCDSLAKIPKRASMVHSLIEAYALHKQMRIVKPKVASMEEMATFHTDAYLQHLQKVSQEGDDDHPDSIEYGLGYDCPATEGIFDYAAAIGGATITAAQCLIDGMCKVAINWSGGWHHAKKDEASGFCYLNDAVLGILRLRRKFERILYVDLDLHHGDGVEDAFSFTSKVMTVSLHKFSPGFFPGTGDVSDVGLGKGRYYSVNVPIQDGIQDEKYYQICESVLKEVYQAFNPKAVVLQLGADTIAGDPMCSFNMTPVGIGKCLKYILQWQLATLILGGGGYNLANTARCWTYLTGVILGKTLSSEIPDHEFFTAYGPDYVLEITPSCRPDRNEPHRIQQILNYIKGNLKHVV
protocolText: In vitro histone deacetylase assay: enzymatic HDAC8 electrophoretic mobility shift assay
Format: biochemical
experimentalConditions: electrophoretic mobility shift assay; enzyme 1 nM; 2 μM fluorescently labeled peptide substrate RHKK(Ac)-NH2; 25° C.; 12 concentrations; read-out: HDAC8 IC50
Method: The enzymatic HDAC8 assay was performed using electrophoretic mobility shift assay. Full length human recombinant HDAC8 protein was expressed in baculoviral system and purified by affinity chromatography. […] The terminated assay plates were analyzed on LabChip® 3000 microfluidic electrophoresis instrument (Perkin Elmer/Caliper Life Sciences). The fluorescence intensity of the electrophoretically separated de-acetylated product and substrate peptide was measured. […]
pIC50: −log10 of the molar value.
quantity: pIC50

{"compound": "COc1ccc(CN2C(=O)C(CCN)Oc3ccc(C(=O)NO)cc32)cc1 (centres unmarked) [Compound I-104]", "targetUnderTest": "Full length human recombinant HDAC8 protein (Homo sapiens, UniProt Q9BY41)", "pIC50": "7.00 to 7.60"}
{"compound": "CCC(C)N1C(=O)COc2ccc(C(=O)NO)cc21 (centres unmarked) [Compound I-46]", "targetUnderTest": "Full length human recombinant HDAC8 protein (Homo sapiens, UniProt Q9BY41)", "pIC50": "6.00 to 7.00"}

For the compound COc1ccc(CN2C(=O)C3(CCC3)Oc3ccc(C(=O)NO)cc32)cc1 [Compound I-157] , what pIC50 is on record?
7.00 to 7.60

For the compound COc1cccc(CN2C(=O)COc3ccc(C(=O)NO)cc32)c1 [Compound I-60] , what pIC50 is on record?
7.00 to 7.60

For the compound O=C(NO)c1ccc2c(c1)N(Cc1ccc(S(=O)(=O)C(F)(F)F)cc1)C(=O)CO2 [Compound I-17] , what pIC50 is on record?
> 7.60
